system_under_test: PI3Kδ (p110δ/p85α) (Homo sapiens (Human), UniProt O00329)
Sequence (O00329 whole entry): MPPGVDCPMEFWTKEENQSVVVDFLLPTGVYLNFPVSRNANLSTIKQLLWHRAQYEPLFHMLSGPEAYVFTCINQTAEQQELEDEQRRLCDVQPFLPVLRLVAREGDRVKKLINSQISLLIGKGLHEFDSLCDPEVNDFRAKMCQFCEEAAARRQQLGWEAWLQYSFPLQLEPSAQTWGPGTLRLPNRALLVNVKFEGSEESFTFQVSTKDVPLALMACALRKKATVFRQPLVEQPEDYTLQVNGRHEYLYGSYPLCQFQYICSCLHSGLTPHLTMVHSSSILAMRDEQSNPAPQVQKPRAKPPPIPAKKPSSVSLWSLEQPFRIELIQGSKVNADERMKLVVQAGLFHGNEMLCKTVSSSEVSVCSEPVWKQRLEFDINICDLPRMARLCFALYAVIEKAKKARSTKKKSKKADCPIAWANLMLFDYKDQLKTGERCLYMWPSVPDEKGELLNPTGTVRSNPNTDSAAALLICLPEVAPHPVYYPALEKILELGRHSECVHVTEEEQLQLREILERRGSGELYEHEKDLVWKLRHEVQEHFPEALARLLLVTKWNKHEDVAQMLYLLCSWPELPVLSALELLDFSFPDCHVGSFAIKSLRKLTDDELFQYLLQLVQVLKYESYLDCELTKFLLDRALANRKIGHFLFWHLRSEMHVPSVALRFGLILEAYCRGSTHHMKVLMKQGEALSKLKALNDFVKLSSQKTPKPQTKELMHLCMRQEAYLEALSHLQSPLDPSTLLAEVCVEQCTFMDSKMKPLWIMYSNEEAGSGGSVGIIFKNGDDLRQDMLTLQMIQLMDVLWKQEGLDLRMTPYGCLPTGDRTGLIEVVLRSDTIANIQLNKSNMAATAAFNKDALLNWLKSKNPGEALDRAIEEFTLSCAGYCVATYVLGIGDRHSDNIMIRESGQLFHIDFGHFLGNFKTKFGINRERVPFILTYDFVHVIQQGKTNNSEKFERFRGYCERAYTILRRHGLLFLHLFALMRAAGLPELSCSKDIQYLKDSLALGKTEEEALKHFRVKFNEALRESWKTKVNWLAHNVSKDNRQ
Sequence (P27986 whole entry partner): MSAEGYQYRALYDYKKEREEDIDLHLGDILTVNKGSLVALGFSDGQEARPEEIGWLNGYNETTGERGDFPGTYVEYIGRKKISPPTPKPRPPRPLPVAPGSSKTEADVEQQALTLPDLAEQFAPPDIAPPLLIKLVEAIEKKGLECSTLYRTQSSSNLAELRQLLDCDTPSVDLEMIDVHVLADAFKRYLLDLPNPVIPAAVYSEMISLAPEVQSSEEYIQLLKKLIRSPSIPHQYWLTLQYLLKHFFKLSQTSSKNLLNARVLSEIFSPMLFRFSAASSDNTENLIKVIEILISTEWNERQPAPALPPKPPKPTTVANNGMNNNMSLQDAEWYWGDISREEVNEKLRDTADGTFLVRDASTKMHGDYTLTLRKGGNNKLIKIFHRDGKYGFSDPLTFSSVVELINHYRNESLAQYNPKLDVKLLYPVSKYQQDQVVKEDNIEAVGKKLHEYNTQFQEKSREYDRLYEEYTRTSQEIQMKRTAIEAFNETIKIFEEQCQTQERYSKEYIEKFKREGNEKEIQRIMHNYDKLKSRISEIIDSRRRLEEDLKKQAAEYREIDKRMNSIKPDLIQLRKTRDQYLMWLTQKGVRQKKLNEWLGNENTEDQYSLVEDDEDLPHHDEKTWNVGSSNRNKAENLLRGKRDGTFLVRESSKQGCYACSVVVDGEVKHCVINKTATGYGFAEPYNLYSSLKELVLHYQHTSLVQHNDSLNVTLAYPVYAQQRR
measurement_protocol: PI3Kδ scintillation proximity assay (Example A3)
condition_notes: 20 μM ATP, 20 μM PIP2, 4 nM PI3Kδ; read-out: PI3Kδ SPA IC50
pIC50: −log10 of the molar value. Counter-ions that a name gives are not always drawn.
Catalogue of compounds with associated pIC50
recorded_metric: pIC50

>>> result("COc1c(C(C)n2ccc(=O)c3c(N)ncnc32)cc(Cl)c(C)c1-c1cncnc1 (racemic) [Example 29, bis(trifluoroacetate)]")
"≥ 8.00"
>>> result("CCOc1c(C(C)n2nc(C#N)c3c(N)ncnc32)cc(Cl)c(C)c1-c1ccc(C(=O)N(C)C)nc1 (racemic)")
"7.30 to 8.00"
>>> result("COc1c(C(C)n2nc(C)c3c(N)ncnc32)cc(Cl)c(C)c1-c1cnc(N)nc1 (single isomer, unassigned)")
"≥ 8.00"
>>> result("CCOc1c(C(C)n2nc(C)c3c(N)ncnc32)cc(Cl)c(C#N)c1C1CNC(=O)O1 (single isomer, unassigned) [323 (1st peak)]")
"≥ 8.00"
>>> result("CCOc1c(C(C)n2nc(-c3ccc(C(=O)N(C)C)nc3)c3c(N)ncnc32)cc(Cl)c(C)c1-c1ccc(C(=O)N(C)C)nc1 (racemic) [Example 56, tris(trifluoroacetate)]")
"7.30 to 8.00"
>>> result("CCNC(=O)N1CC(c2c(C#N)c(Cl)cc(C(C)n3nc(C)c4c(N)ncnc43)c2OC)C1 (single isomer, unassigned)")
"≥ 8.00"
>>> result("COc1c(C(C)n2nc(C)c3c(N)nccc32)cc(Cl)c(C)c1-c1ccc(C(=O)N(C)C)nc1 (racemic) [Example 41, bis(trifluoroacetate)]")
"6.70 to 7.30"
>>> result("COc1c(C(C)n2nc(C)c3c(N)ncnc32)cc(Cl)c(C)c1C1CN(C(=O)[C@@H](C)O)C1 (stereo partly drawn) [Example 121, trifluoroacetate]")
"≥ 8.00"
>>> result("COc1c(C(C)n2nc(C)c3c(N)ncnc32)cc(Cl)c(C)c1-c1cncc(C(=O)N(C)CCO)c1 (single isomer, unassigned)")
"≥ 8.00"
>>> result("COc1c(C(C)n2nc(C)c3c(N)ncnc32)cc(Cl)c(C#N)c1-c1ccc(C(=O)N(C)C)nc1 (single isomer, unassigned) [313 (2nd peak)]")
"≥ 8.00"
>>> result("CCOc1c(C(C)n2nc(C)c3c(N)ncnc32)cc(Cl)c(C)c1-c1cncc(S(C)(=O)=O)c1 (stereo not drawn)")
"≥ 8.00"
>>> result("COc1c(C(C)n2nc(C)c3c(N)ncnc32)cc(Cl)c(Cl)c1C1CN(CC(C)(C)O)C1 (single isomer, unassigned)")
"≥ 8.00"
